- MOLECULE: "CNCc1ccc(C)cc1Oc1ccc(Cl)cc1F [Example 47]"
  melting point: "198 to 220 °C"
- MOLECULE: "CNCc1ccc(Cl)cc1Oc1ccc(F)c2c1CCC2 [Example 57]"
  melting point: "204 to 206 °C"
- MOLECULE: "CNCc1cc(C)c([S+](C)[O-])cc1Oc1ccc(Cl)c(C)c1C (stereo not drawn) [Example 19]"
  melting point: "220 to 222 °C"
- MOLECULE: "CNCc1cc(C)c(C)cc1Oc1ccc(Cl)cc1F [Example 45]"
  melting point: "134 to 136 °C"
- MOLECULE: "CCSc1ccc(CNC)c(Oc2ccc(Cl)cc2)c1 [Example 60]"
  melting point: "158 to 160 °C"
- MOLECULE: "CNC(C)c1cc(F)c(Cl)cc1Oc1ccc(Cl)cc1F (stereo not drawn) [Example 41]"
  melting point: "178 to 180 °C"

* * *

melting point reference

- MOLECULE: "CNCc1ccc(Br)cc1Oc1ccc(Cl)cc1F [Example 50]"
  melting point: "204 to 206 °C"
- MOLECULE: "CNCc1ccc(OC)cc1Oc1ccc(Cl)cc1F [Example 46]"
  melting point: "186 to 188 °C"
- MOLECULE: "CNCc1cc(F)c(S(C)(=O)=O)cc1Oc1ccc(Cl)cc1F [Example 52]"
  melting point: "184 to 186 °C"
- MOLECULE: "CNCc1cc(C)c(Cl)cc1Oc1ccc(Cl)cc1F [Example 43]"
  melting point: "212 to 214 °C"
- MOLECULE: "CNCc1ccc(S(C)(=O)=O)cc1Oc1ccc2c(c1)CCC2 [Example 58]"
  melting point: "88 to 90 °C"

Cited source for all entries: patent US20060058361A1
